Recorded LogP values for a group of molecules are listed next.
# protocol description: Log P by HPLC on reversed phase columns (EEC directive 79/831 Annex V.A8; methods [a], [b], [c])
# Assay type: physicochemical

// solved cases for LogP follow
What value of measured LogP is listed for CC(O)(Cn1cncc1Cl)c1ccc(Oc2ccc(OC(F)(F)F)cc2)c(Br)c1 (stereo not shown) ?
2.90^[a]

Can you share its LogP? I mean this molecule: N#CCOC(Cn1cncc1C#N)c1ccc(Oc2ccc(Br)cc2)cc1C(F)(F)F (stereo not shown)
3.73^[a]

Reported LogP for C#Cc1ccc(C(O)(Cn2cncc2C#N)C2(Cl)CC2)c(Cl)c1 (stereo not shown) : what is it?
2.52^[a]

Continuing:
Sample C[Si](C)(C)CC(O)(Cn1cncc1C#N)c1ccccc1F (stereo not shown) — what was its LogP?
3.17^[a]

I have this molecule here, N#Cc1cncn1CC(O)(CCCC1CCCCC1)C1CCC1 (stereo not shown) , and I need its recorded LogP.
4.16^[a]

Endpoint output: LogP of OC(Cn1cncc1F)c1ccc(Oc2ccc(C(F)F)cc2)nc1Cl (stereo not shown) . Value?
1.80^[a]

What value of LogP has been reported for the following molecule? N#Cc1cncn1CC(O)(c1ccc(Cl)cc1F)C1CC1 (stereo not shown)
2.50^[a]

Field request: LogP | item: N#Cc1cncn1CC(O)(c1cnc(Cl)cc1Br)C1(F)CC1 (stereo not shown)
1.98^[a]

Quick check: LogP of CC(O)(Cn1cncc1C#N)c1ccc(Oc2ccc(Cl)cc2)cc1Cl (stereo not shown) ?
3.51^[a]

---

Examples of molecules with documented LogP follow.
# protocol description: Log P by HPLC on reversed phase columns (EEC directive 79/831 Annex V.A8; methods [a], [b], [c])
# Assay type: physicochemical

Consider the following illustrative entries.
Fill in: LogP of COC(Cn1cncc1Cl)c1ccc(Oc2ccc(Cl)cc2)cc1C(F)F (stereo not drawn) is ___
3.15^[a]

Please look up its LogP: CC(O)(Cn1cncc1Cl)c1ccc(Oc2ccc(Br)cc2)cc1Cl (stereo not drawn)
2.80^[a]

***
What LogP value was documented for this molecule, N#Cc1cncn1CC(O)(c1ccc(Br)cc1Br)C1(F)CC1 (stereo not drawn) ?
2.71^[a]

---

Documented pest or weed control at 500 ppm across a set of compounds
# Tested on: Septoria tritici
# protocol description: Example IX-B: in vivo preventive test on Septoria tritici (leaf spot on wheat)
# condition details: Zymoseptoria tritici, 576 h; compounds of formula IX; 500 ppm of active ingredient; wheat plants, preventive spray; evaluated 24 days after inoculation; read-out: efficacy

Sample records with pest or weed control at 500 ppm:
What value of pest or weed control at 500 ppm has been recorded for this entry: N#Cc1cncn1CC(=O)c1cnc(Oc2ccc(C(F)(F)F)cc2)cc1C(F)(F)F
90 to 100%

What does the record list as pest or weed control at 500 ppm for N#Cc1cncn1CC(=O)c1ccc(Oc2ccc(S(F)(F)(F)(F)F)cc2)nc1Cl ?
90 to 100%

Need pest or weed control at 500 ppm of N#Cc1cncn1CC(=O)c1ccc(Oc2ccc(Cl)cn2)cc1Cl , thanks.
70 to 79%

Give its pest or weed control at 500 ppm value. Item: O=C(Cn1cncc1Cl)c1ccc(Oc2ccc(F)cc2)cc1Cl
90 to 100%

Look up pest or weed control at 500 ppm for this compound: N#Cc1cncn1CC(=O)c1ccc(OC(F)(F)F)cc1
80 to 89%

Would you mind telling me what pest or weed control at 500 ppm value was observed for N#Cc1cncn1CC(=O)c1ccc(Oc2ccc(Cl)cc2)cc1C(F)(F)F ?
90 to 100%

Give its pest or weed control at 500 ppm value. Item: N#Cc1cncn1CC(=O)c1cnc(Oc2ccc(C(F)(F)F)cc2)cc1Br
90 to 100%

I have this compound here, N#Cc1cncn1CC(=O)c1cnc(Oc2ccc(OC(F)(F)F)cc2)cc1C(F)(F)F , and I need its recorded pest or weed control at 500 ppm.
80 to 89%

New cases:
What does the data say about its pest or weed control at 500 ppm? Entry: O=C(Cn1cncc1Cl)c1ccc(Oc2ccc(Cl)cc2)nc1C(F)(F)F
90 to 100%

Record request: pest or weed control at 500 ppm value, item N#Cc1cncn1CC(=O)c1ccc(Oc2ccc(Br)cn2)cc1Cl
90 to 100%

Quick one: pest or weed control at 500 ppm of N#Cc1cncn1CC(=O)c1ccccc1Cl ?
80 to 89%
